Biological target: α-glucosidase (Saccharomyces cerevisiae, UniProt P53341)
Sequence (P53341 whole entry): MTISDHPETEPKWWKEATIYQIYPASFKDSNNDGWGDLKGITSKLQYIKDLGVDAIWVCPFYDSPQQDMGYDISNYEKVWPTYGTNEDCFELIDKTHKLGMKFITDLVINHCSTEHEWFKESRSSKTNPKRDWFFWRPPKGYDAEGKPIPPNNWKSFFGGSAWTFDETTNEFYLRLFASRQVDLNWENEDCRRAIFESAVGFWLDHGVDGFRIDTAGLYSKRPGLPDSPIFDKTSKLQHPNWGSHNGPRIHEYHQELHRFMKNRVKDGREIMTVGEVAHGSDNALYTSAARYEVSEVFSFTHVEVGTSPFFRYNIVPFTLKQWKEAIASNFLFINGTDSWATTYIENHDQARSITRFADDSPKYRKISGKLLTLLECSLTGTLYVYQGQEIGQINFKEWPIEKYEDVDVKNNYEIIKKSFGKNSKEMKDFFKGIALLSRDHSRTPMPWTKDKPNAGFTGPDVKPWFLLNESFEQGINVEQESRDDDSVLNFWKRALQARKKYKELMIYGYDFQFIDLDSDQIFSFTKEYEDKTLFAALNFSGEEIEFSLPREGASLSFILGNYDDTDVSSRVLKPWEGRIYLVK
Test: Fluorescence quenching, binding and thermodynamics with α-glucosidase
Conditions: T 298 K
Measured n (number of binding sites) accompanies every entry in the list below.

O=C(O)c1ccc(-c2c3nc(c(-c4ccc(C(=O)O)cc4)c4ccc([nH]4)c(-c4ccc(C(=O)O)cc4)c4nc(c(-c5ccc(C(=O)O)cc5)c5ccc2[nH]5)C=C4)C=C3)cc1    1.30
Oc1ccc(-c2c3nc(c(-c4ccc(O)cc4)c4ccc([nH]4)c(-c4ccc(O)cc4)c4nc(c(-c5ccc(O)cc5)c5ccc2[nH]5)C=C4)C=C3)cc1    1.29
Nc1ccc(-c2c3nc(c(-c4ccc(N)cc4)c4ccc([nH]4)c(-c4ccc(N)cc4)c4nc(c(-c5ccc(N)cc5)c5ccc2[nH]5)C=C4)C=C3)cc1    1.14
O=C(O)c1ccc(-c2c3nc(c(-c4ccc(C(=O)O)cc4)c4ccc([nH]4)c(-c4ccc(C(=O)O)cc4)c4nc(c(-c5ccc(C(=O)O)cc5)c5ccc2[nH]5)C=C4)C=C3)cc1.[Ni+2]    1.03

Then this molecule:
What value of n (number of binding sites) has been recorded for this entry: O=C(O)c1ccc(-c2c3nc(c(-c4ccc(C(=O)O)cc4)c4ccc([nH]4)c(-c4ccc(C(=O)O)cc4)c4nc(c(-c5ccc(C(=O)O)cc5)c5ccc2[nH]5)C=C4)C=C3)cc1.[Cu+2] 1.44

---

Listed here: items and their measured Kq.
Target: α-glucosidase (Saccharomyces cerevisiae, UniProt P53341)
Assay: Fluorescence quenching, binding and thermodynamics with α-glucosidase
Conditions: T 298 K

Known results for compounds:
O=C(O)c1ccc(-c2c3nc(c(-c4ccc(C(=O)O)cc4)c4ccc([nH]4)c(-c4ccc(C(=O)O)cc4)c4nc(c(-c5ccc(C(=O)O)cc5)c5ccc2[nH]5)C=C4)C=C3)cc1.[Cu+2]    7.35 ± 0.09 ×10^12 L/mol/s
O=C(O)c1ccc(-c2c3nc(c(-c4ccc(C(=O)O)cc4)c4ccc([nH]4)c(-c4ccc(C(=O)O)cc4)c4nc(c(-c5ccc(C(=O)O)cc5)c5ccc2[nH]5)C=C4)C=C3)cc1.[Ni+2]    17.73 ± 0.15 ×10^12 L/mol/s
Nc1ccc(-c2c3nc(c(-c4ccc(N)cc4)c4ccc([nH]4)c(-c4ccc(N)cc4)c4nc(c(-c5ccc(N)cc5)c5ccc2[nH]5)C=C4)C=C3)cc1    6.25 ± 0.04 ×10^12 L/mol/s
Oc1ccc(-c2c3nc(c(-c4ccc(O)cc4)c4ccc([nH]4)c(-c4ccc(O)cc4)c4nc(c(-c5ccc(O)cc5)c5ccc2[nH]5)C=C4)C=C3)cc1    7.40 ± 0.06 ×10^12 L/mol/s

Moving on to the next compound.
For O=C(O)c1ccc(-c2c3nc(c(-c4ccc(C(=O)O)cc4)c4ccc([nH]4)c(-c4ccc(C(=O)O)cc4)c4nc(c(-c5ccc(C(=O)O)cc5)c5ccc2[nH]5)C=C4)C=C3)cc1 , what is its reported Kq? 7.45 ± 0.04 ×10^12 L/mol/s

---

Biological target: α-glucosidase (Saccharomyces cerevisiae, UniProt P53341)
Test: Fluorescence quenching, binding and thermodynamics with α-glucosidase
Details: Van’t Hoff, 298–310 K
Response key: 1 (yes) means ΔH^0 >= -20 kcal/mol; 0 (no) means ΔH^0 < -20 kcal/mol.

Worked cases, answers included:
Nc1ccc(-c2c3nc(c(-c4ccc(N)cc4)c4ccc([nH]4)c(-c4ccc(N)cc4)c4nc(c(-c5ccc(N)cc5)c5ccc2[nH]5)C=C4)C=C3)cc1    0 (no)
O=C(O)c1ccc(-c2c3nc(c(-c4ccc(C(=O)O)cc4)c4ccc([nH]4)c(-c4ccc(C(=O)O)cc4)c4nc(c(-c5ccc(C(=O)O)cc5)c5ccc2[nH]5)C=C4)C=C3)cc1.[Cu+2]    0 (no)
O=C(O)c1ccc(-c2c3nc(c(-c4ccc(C(=O)O)cc4)c4ccc([nH]4)c(-c4ccc(C(=O)O)cc4)c4nc(c(-c5ccc(C(=O)O)cc5)c5ccc2[nH]5)C=C4)C=C3)cc1.[Ni+2]    1 (yes)
O=C(O)c1ccc(-c2c3nc(c(-c4ccc(C(=O)O)cc4)c4ccc([nH]4)c(-c4ccc(C(=O)O)cc4)c4nc(c(-c5ccc(C(=O)O)cc5)c5ccc2[nH]5)C=C4)C=C3)cc1    0 (no)

Please look at the following molecule next.
Reported ΔH^0 reaches at least -20 kcal/mol for Oc1ccc(-c2c3nc(c(-c4ccc(O)cc4)c4ccc([nH]4)c(-c4ccc(O)cc4)c4nc(c(-c5ccc(O)cc5)c5ccc2[nH]5)C=C4)C=C3)cc1 ? 0 (no)
